- Test system: Human RSV-A (“Long” strain)
- assay_details: RSV-A assay: CPE in Hep-2 cells, ATPlite readout
- Assay type: cell-based
- experimental_context: MOI 0.1, 5-day incubation
measured_metric: EC50

Value lookup for EC50; key = COc1cc(C(=O)NC[C@@](O)(c2ccccc2)c2cc(C(C)(C)O)c(Cl)c(-c3cc(Cl)c(F)cc3F)n2)cc2cn(C3CC3)nc12
< 10 nM

----------
Field: EC50. Provide a value for each of the compounds that follow.
- Test system: Human RSV-A (“Long” strain)
- assay_details: RSV-A assay: CPE in Hep-2 cells, ATPlite readout
- Type: cell-based
- experimental_context: human respiratory syncytial virus, 120 h, MOI 0.1, 5-day incubation

Please look up its EC50: CC(C)(O)c1cc([C@@](O)(CNC(=O)c2ccc3nn(C4CC4)cc3c2)C2CC2)nc(-c2ccc(F)cc2)c1F
10 to 50 nM

For the compound shown here, NC(=O)C1(c2cc([C@@](O)(CNC(=O)c3cc(OC4CC4)c4nn(C(F)F)cc4c3)C3CC3)nc(-c3cc(Cl)c(F)cc3F)c2F)CC1 (single isomer, unassigned) , give the reported EC50.
10 to 50 nM

Reported EC50 for Cc1nc2c(OC(F)F)cc(C(=O)NC[C@](O)(c3cc(C4(O)CC4)c(F)c(-c4ccc(F)cc4)n3)C3CC3)cc2cc1Br (single isomer, unassigned) : what is it?
10 to 50 nM

Can you look up the measured EC50 of COc1cc(C(=O)NC[C@](O)(c2cc(C3(C(N)=O)CC3)cc(-c3cc(Cl)c(F)cc3F)n2)C2CC2)cc2cn(C3CC3)nc12 (single isomer, unassigned) for me?
10 to 50 nM

Give its EC50 value. Item: COc1cc(C(=O)NC[C@](O)(c2cc(C(F)(F)C(N)=O)c(F)c(-c3ccc(F)c(Cl)c3F)n2)C2CC2)ccc1OC[C@@H](C)O (single isomer, unassigned)
> 50 nM

----------
Please go through the items and note down their pEC50.
- Tested on: Human RSV-A (“Long” strain)
- assay_details: RSV-A assay: CPE in Hep-2 cells, ATPlite readout
- Assay type: cell-based
- experimental_context: human respiratory syncytial virus, 120 h, MOI 0.1, 5-day incubation
- Description: Hep-2 cells, (originally derived from tumors grown in irradiated-cortisonised weanling rats that had been injected with epidermoid carcinoma tissue from a person's larynx, but later found to be indistinguishable from HeLa cells by PCR DNA analysis), were used for the culturing of genotype A, “Long” strain RSV. […] Viral stock titers were quantified by tissue culture infectious dose 50% (TCID50) using 8,000 cells per well and 3-fold viral dilutions across a 96-well plate, cultured for 4 days. […]
pEC50: −log10 of the molar value.

Could you share which pEC50 value was measured for COc1cc(C(=O)NC[C@@](O)(c2ccccc2)c2cc(C(C)(C)O)c(F)c(-c3cc(Cl)c(F)cc3F)n2)cc2cc(C3CC3)nn12 ?
> 8.00

What does the data say about its pEC50? Entry: COc1c(C(C)(C)O)cc([C@@](O)(CNC(=O)c2cc(OC)c3nn(C4CC4)cc3c2)C2CC2)nc1-c1cc(Cl)c(F)cc1F
< 7.30

Could you share which pEC50 value was measured for COc1cc(C(=O)NC[C@](O)(c2cc(C3(C(N)=O)CC3)c(F)c(-c3ccc(F)c(Cl)c3F)n2)C2CC2)cc2cn(C3(F)CC3)nc12 (single isomer, unassigned) ?
> 8.00

I am curious: what pEC50 value has been reported for COc1cc(C(=O)NC[C@](O)(c2cc(C(F)(F)C(N)=O)c(F)c(-c3cc(Cl)c(F)cc3F)n2)C2CC2)cc2cn(C(F)F)nc12 (single isomer, unassigned) ?
7.30 to 8.00

Would you mind telling me what pEC50 value was observed for COc1cc(C(=O)NC[C@](O)(c2cc(C3(C#N)CC3)c(F)c(-c3cc(Cl)c(F)cc3F)n2)C2CC2)cc2cn(C3CC3)nc12 (single isomer, unassigned) ?
7.30 to 8.00
